# Test system: Human immunodeficiency virus 1
# Method: Antiviral activity against HIV1 BaL in human PBL cells
# Type: functional, organism-based
# Test parameters: Human immunodeficiency virus 1, BaL
Each item that follows carries a reported IC50.
Just the number in nM, nothing appended.

The examples below pair each entry with its known result.
Inquiry: Specify IC50 for CC(C)(C)NS(=O)(=O)c1ccc(Cl)c(C(=O)N2CCC(CCN3CCC(N(C(=O)NCc4ccc(C#N)cc4)c4cccc(F)c4)CC3)(c3cccc(F)c3)CC2)c1Cl and stop.
Reply text: 0.8

Inquiry: Specify IC50 for N#Cc1ccc(CNC(=O)N(c2cccc(F)c2)C2CCN(CCC3(c4cccc(F)c4)CCN(C(=O)c4cc(S(N)(=O)=O)c(F)cc4Cl)CC3)CC2)cc1 and stop.
Reply text: 0.9

Inquiry: Specify IC50 for N#Cc1ccc(CNC(=O)N(c2cccc(F)c2)C2CCN(CCC3(c4cccc(F)c4)CCN(C(=O)c4cc(S(=O)(=O)N5CCCC5)c(F)cc4Cl)CC3)CC2)cc1 and stop.
Reply text: 0.6

Inquiry: Specify IC50 for N#Cc1ccc(CNC(=O)N(c2cccc(F)c2)C2CCN(CCC3(c4cccc(F)c4)CCN(C(=O)c4cc(S(=O)(=O)N5CC[C@H](O)C5)c(F)cc4Cl)CC3)CC2)cc1 and stop.
Reply text: 0.5

Inquiry: Specify IC50 for Cn1cc(Cl)c(C(=O)N2CCC(CCN3CCC(N(C(=O)NCc4ccc(C#N)cc4)c4cccc(F)c4)CC3)(c3cccc(F)c3)CC2)n1 and stop.
Reply text: 22

Okay, next one:
Inquiry: Specify IC50 for N#Cc1ccc(CNC(=O)N(c2cccc(F)c2)C2CCN(CCC3(c4cccc(F)c4)CCN(C(=O)c4c(Cl)cncc4Cl)CC3)CC2)cc1 and stop.
Reply text: 4.8
